Reference source: PubChem BioAssay AID463117

# assay.text: rescue of L929 cells from caspase-blocker death – duplicate runs, confirmation (AID 463117);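 also: 0% = cells with zVAD alone and 100% = vehicle cells without zVAD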
# particulars: L929 zVAD-induced necroptosis rescue, ATP luminescence, 24 h; at 10 µM; active compounds read high
Some of the results follow.
Would you mind telling me the reported activation (protection from necroptosis) of each entry?
State the answer as a number, implicitly in %.

Dear colleague, I am looking for the recorded activation (protection from necroptosis) of the following compound: `Cc1ccccc1NC(=O)CSC1=NCCN1`
7.19

Now try `CCOC(=O)N1CCN(C(=O)CNC(=O)Cc2ccc(Cl)cc2)CC1` .
34.3

What do we get for `C[C@@H]1C[C@@H]2O[C@H]2/C=C\C=C\C(=O)Cc2c(Cl)c(O)cc(O)c2C(=O)O1` ?
76.5

Also need `Cc1cc(-n2cnc(-c3cn(C)nc3C)n2)no1` , thanks.
27.6

Another compound to look at: CC1CCCC(C)N1CCCNC(=O)c1cc2c(=O)n(C)c3ccccc3c2n1C (configuration not stated)
37.3

Repeat with `Cc1cccc(NC(=O)Nc2ccc3c(c2)OCO3)n1`
-0.556

Check `CCN(CC)S(=O)(=O)c1ccc(NC(=O)c2cccnc2Cl)c(NC(=O)c2cccnc2Cl)c1` too.
2.93

Please do the same for `CCn1c(SCCC(C)C)nnc1-c1c[nH]c2ccccc12` as well.
2.15

Next record, please: `COc1ccc(-c2csc(Nc3ccc(O)cc3)n2)cc1`
30.2

Try this compound next: `COc1ccc(-n2cnc3cc(NCc4ccco4)ccc32)cc1`
52.9

What would you report for `Oc1ccc(/C=N/Nc2ccc(C(F)(F)F)cn2)cc1O` ?
83.8

Same question, `Cc1ccc(Nc2ccccc2N)cc1` this time
5.52

---

# assay.text: rescue of L929 cells from caspase-blocker death – duplicate runs, confirmation (AID 463117);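 also: 0% = cells with zVAD alone and 100% = vehicle cells without zVAD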
# particulars: L929 zVAD-induced necroptosis rescue, ATP luminescence, 24 h; at 10 µM; active compounds read high
Some of the results follow. Calls of active or inactive are those of the source.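 The calls were made as follows: active = mean protection from necroptosis of at least 50% over duplicate tests; inactive = mean protection below 50%.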
Give activation (protection from necroptosis) for every item shown.

Sample `Cc1ccc(NC(=O)NC2CCCCC2)cc1S(=O)(=O)N1CCOCC1` — what was its activation (protection from necroptosis)?
2.38% (inactive)

Then what about the compound `COc1ccc(N=Cc2c(O)[nH]c3ccccc23)cc1OC` ?
76% (active)

Continue with `Cc1cc(NC(=O)c2cnn3cccnc23)n(-c2ccccc2)n1`
21.5% (inactive)

Same lookup for `Cc1[nH]c(=O)c(C(=O)/C=C/c2ccccc2)c2c1CCCC2` , please.
1.29% (inactive)

Here is the next compound: `COc1cc(N=Cc2c(O)[nH]c3ccccc23)cc(OC)c1OC`
72.9% (active)

`COc1ccc(-n2cnc3cc(C(=O)NC4CCCC4)ccc32)cc1` ?
62% (active)
